# Protocol Description: Spontaneous decomposition in solution (h.p.l.c. / nmr)
# Type: physicochemical
# Condition Parameters: at 21° C.; read-out: half-life
Measurement Kind: half-life

For O=CC=C1OC2CC(=O)N2C1C(=O)O (stereo not shown) [Compound (I)] the molecule record lists half-life as ~30 min
